# Test system: DU-145
# test description: Cell growth inhibition assay, prostate cancer cell line DU-145
# Assay type: cell-based
# recorded conditions: Homo sapiens, DU-145 prostate cancer cell line
Answer each item with its documented IC50.
Kindly provide the numeric value in µM only, without the unit symbol.

QUERY: Let me know recorded IC50 for COc1cc(NC(=O)c2cc3cc(NS(C)(=O)=O)ccc3s2)cc(C(C)(C)c2cc(OC)cc(OC(F)(F)F)c2)c1 , thanks.
RESULT: 0.023

QUERY: Please give the documented IC50 of CCn1cccc1C(C)(C)c1cc(Cl)cc(NC(=O)c2cc3cc(NS(C)(=O)=O)ccc3s2)c1
RESULT: 0.042

QUERY: State its IC50: CC(C)Oc1cc(Oc2cc(Cl)cc(NC(=O)c3cc4cc(NS(C)(=O)=O)ccc4s3)c2)cc(OC(F)(F)F)c1
RESULT: 0.027
